# System: PPARg:RXRa 90nM:30nM, anti-RXR (NR concentration 90 nM, RXRa partner concentration 30 nM)
# TEST_PROTOCOL: PBM binding z-score (relative to random genomic background probes); higher = stronger binding; sequences stand for … in GC…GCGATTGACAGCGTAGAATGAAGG
REPORTED_ENDPOINT: PBM binding z-score

GCGACTGGGGCATCAGCAGGTTACAATAACTTAA | 0.171

Query string: Give recorded PBM binding z-score. CGAACTAGGTCATTGACCGGACAGTGAATAGTAA
Result string: 5.48

Query string: Give recorded PBM binding z-score. TCTAGTTGGCCACGGAGGTCACACACGACGGGTA
Result string: 2.84

Query string: Give recorded PBM binding z-score. ATCTCTAGGTAAAGTTCTGTGAAAGATCGATAGA
Result string: 0.677

Query string: Give recorded PBM binding z-score. ATAATGAGGTTATTAAGATCAGGGAATTGCGGTC
Result string: 1.5

Query string: Give recorded PBM binding z-score. TCTAGTTGGTCACTGAGGTCACACACGACGGGTA
Result string: 3.68

Query string: Give recorded PBM binding z-score. GCTAGCAGGCCATTTGGGGCACTCAATGACGGGC
Result string: -0.0904

Query string: Give recorded PBM binding z-score. TCATACAGGTAAAGGTGAAAGTCGAACGATATGA
Result string: 4.38

Query string: Give recorded PBM binding z-score. CCGAGTAGGTTTTGGGGCATTCAGGCAACGGTGA
Result string: 0.58

Query string: Give recorded PBM binding z-score. CGTCAAAGTTCAACTAAGGTAACGTAAAGCACGC
Result string: 4.08
